These molecules were tested on PDPK1; Kd is the recorded read-out.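 Note: kd values determined as follow-up on hits from a single-replicate KINOMEscan panel screen.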
measured-endpoint: Kd

# molecule, experimental-value
measured = [
    ("CCCc1ccc(S(=O)(=O)NC2CCN(c3ccnc(Nc4ccc(F)cc4)n3)C2)cc1 (centres unmarked)", "> 10 µM"),
    ("Fc1cc(Cl)ccc1Nc1ccnc2cc(-c3ccc(CN4CCCCC4)o3)ccc12", "> 10 µM"),
]

###

test system: MYLK; settings: concentration: 1 μM, replicates: in singlicate; n = 1
%Inh values, listed per item

# molecule, %Inh
data = [
    ("COc1cccc(NC(=O)NC2CCN(c3ccnc(Nc4ccc(F)cc4)n3)C2)c1 (stereo not drawn)", "0%"),
    ("Cc1cccc(-c2nc(Nc3cccc(C(N)=O)c3)c3ccccc3n2)n1", "28%"),
    ("Cn1ccc2ncnc(Oc3ccc(Nc4nc5ccccc5[nH]4)cc3)c21", "0%"),
    ("CS(=O)(=O)c1ccc(-c2c(-c3ncn[nH]3)sc(N3CCOCC3)c2C#N)cc1", "9%"),
    ("COc1ccccc1CNC(=O)c1cc(C(=O)c2ccccc2C)c[nH]1", "19%"),
    ("COC(=O)c1c(-c2ccccc2)c2cc(C(=O)O)ccc2c(=O)n1Cc1ccccc1", "0%"),
    ("CC1=C(C(=O)Nc2cc3cn[nH]c3cc2F)C(c2ccc(C(F)(F)F)cc2)CC(=O)N1 (stereo not drawn)", "13%"),
    ("CC(C)(C)c1ccc(C(=O)Nc2cn3cc(-c4cccnc4)ccc3n2)cc1", "28%"),
    ("Cn1cncc1-c1ccc2ncnc(Nc3ccc(OCc4ccccc4)cc3)c2c1", "6%"),
]

###

%Inh values, listed per item
test system: SRMS; conditions: concentration: 1 μM, replicates: in singlicate; n = 1
measured-endpoint: %Inh (%)

# molecule, experimental-value
records = [
    ("O=C(Nc1n[nH]c2cc(-c3cccc(F)c3F)ccc12)C1CC1", 3),
    ("Fc1cccc(COc2nnc(-c3ccc4c(c3)CCO4)o2)c1", 5),
    ("CC(C)(C)c1ccc(C(=O)Nc2cn3cc(Cl)ccc3n2)cc1", 0),
    ("C[C@@H]1CCCCN1c1cc(-c2ccc3c(N)n[nH]c3c2)nc(N)n1", 0),
    ("COc1ccc(C2=C(Nc3cccc(C(=O)O)c3)C(=O)NC2=O)cc1", 21),
    ("COC(=O)c1c(-c2ccccc2)c2cc(C(=O)O)ccc2c(=O)n1Cc1ccccc1", 0),
    ("COc1cccc(NC(=O)NC2CCN(c3ccnc(Nc4ccc(F)cc4)n3)C2)c1 (stereo not shown)", 0),
    ("CN(C)CCN(C)C(=O)c1cc(-c2ccncc2)c(-c2ccc(Cl)c(O)c2)o1.Cl.Cl", 0),
    ("Cc1cc(-c2ccc3c(c2)CC[C@@H](N[C@@H](C)c2ccccc2)C3)cnc1N.Cl", 0),
    ("COc1cc2ncn(-c3cc(OCC4CCCO4)c(C(N)=O)s3)c2cc1OC (stereo not shown)", 0),
    ("O=C(Nc1n[nH]c2nc(-c3nccs3)c(Br)cc12)C1CCCC1", 0),
    ("Cl.NC(=O)c1cccc(Nc2nccc(Nc3ccc(Oc4cccc(Cl)c4)c(Cl)c3)n2)c1", 37),
    ("Cc1ccc(-c2cc(-c3c[nH]nc3-c3ccccn3)ccn2)cc1", 9),
    ("CCn1c(-c2ccccn2)nc2cnccc21", 0),
    ("Cl.c1ccc(-c2n[nH]cc2-c2ccnc(-c3ccc(CN4CCOCC4)cc3)c2)nc1", 0),
    ("O=C(Nc1ccccc1)Nc1cccc(Oc2ccc3nccn3n2)c1", 0),
    ("CN1C(=O)C(Nc2ccc(Cl)c(C(=O)O)c2)=C(c2ccc(Cl)cc2)C1=O", 19),
    ("Cc1cc(NCC(c2ccccc2)c2ccccc2)nc(NCc2ccc(C(F)(F)F)cc2)n1", 0),
    ("O=C(Nc1ccc2c(c1)OCO2)NC1CCN(c2ccnc(Nc3ccc(F)cc3)n2)C1 (stereo not shown)", 0),
    ("COc1ccc(CNC(=O)NC2CCN(c3ccnc(Nc4cc(OC)c(OC)c(OC)c4)n3)C2)cc1 (stereo not shown)", 0),
    ("CCn1c(-c2cccnc2O)nc2cnccc21", 0),
    ("Cl.O=C(Nc1cccc(-c2nn3ncccc3c2-c2ccnc(Nc3cccnc3)n2)c1)c1c(F)cccc1F", 5),
]
